# pIC50 measurements, system: Dihydrofolate reductase (Bos taurus)
# Sequence (P00376 whole entry): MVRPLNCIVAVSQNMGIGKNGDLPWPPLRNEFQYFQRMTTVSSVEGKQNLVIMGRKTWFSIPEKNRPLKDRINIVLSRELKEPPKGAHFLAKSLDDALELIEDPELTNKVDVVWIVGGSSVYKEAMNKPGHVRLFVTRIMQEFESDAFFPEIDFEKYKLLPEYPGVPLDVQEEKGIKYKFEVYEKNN
pIC50: −log10 of the molar value.

- COMPOUND: "Nc1nc(CCl)nc(Nc2cccc([N+](=O)[O-])c2)n1"
  pIC50: "< 4.00"
- COMPOUND: "O=C1NC(=O)C(c2ccccc2)(c2ccccc2)N1 [PHENYTOIN]"
  pIC50: "< 4.00"
- COMPOUND: "CC1(C)N=C(N)N=C(Nc2cccc(Br)c2)N1"
  pIC50: "< 4.00"
- COMPOUND: "COc1cccc(N2C(N)=NC(N)=NC23CCCCC3)c1"
  pIC50: "< 4.00"
- COMPOUND: "Cc1ccccc1NC1=NC(N)=NC(C)(C)N1"
  pIC50: "< 4.00"
- COMPOUND: "COc1ccccc1N1C(N)=NC(N)=NC12CCCCC2"
  pIC50: "< 4.00"
- COMPOUND: "COc1ccc(CN2C(N)=NC(N)=NC2(C)C)cc1"
  pIC50: 4.23
- COMPOUND: "CC1(C)N=C(N)N=C(Nc2ccccc2)N1"
  pIC50: "< 4.00"
- COMPOUND: "Cc1nc(N)nc(Nc2cccc(Cl)c2)n1"
  pIC50: "< 4.00"
- COMPOUND: "NC1=NC2(CCCCC2)N(c2ccccc2Cl)C(N)=N1"
  pIC50: "< 4.00"
- COMPOUND: "Cc1ccccc1N1C(N)=NC(N)=NC12CCCCC2"
  pIC50: "< 4.00"
- COMPOUND: "Nc1nc(CCl)nc(Nc2ccc(Cl)c(Cl)c2)n1"
  pIC50: "< 4.00"
- COMPOUND: "Cc1ccc(NC2=NC(N)=NC(C)(C)N2)cc1"
  pIC50: "< 4.00"
- COMPOUND: "CC1(C)N=C(N)N=C(Nc2ccccc2Br)N1"
  pIC50: "< 4.00"
- COMPOUND: "NC1=NC2(CCCCC2)N(c2ccccc2)C(N)=N1"
  pIC50: "< 4.00"
- COMPOUND: "CC1(C)N=C(N)N=C(N)N1Cc1ccc(Cl)c(Cl)c1"
  pIC50: 4.89
- COMPOUND: "CC1(C)N=C(N)N=C(Nc2ccccc2Cl)N1"
  pIC50: "< 4.00"
- COMPOUND: "CC1(C)N=C(N)N=C(N)N1Cc1ccccc1"
  pIC50: 4.71
- COMPOUND: "CC1(C)N=C(N)N=C(Nc2ccc(Cl)cc2)N1"
  pIC50: "< 4.00"
- COMPOUND: "Cc1ccc(CN2C(N)=NC(N)=NC2(C)C)cc1"
  pIC50: 4.61

Where do the numbers come from? From ChEMBL document CHEMBL1155206.
